Target: adenosine 2a receptor (Homo sapiens, UniProt P29274)
Construct: expressed in transfected cells; host or cells: CHO cells
Sequence (P29274 whole entry): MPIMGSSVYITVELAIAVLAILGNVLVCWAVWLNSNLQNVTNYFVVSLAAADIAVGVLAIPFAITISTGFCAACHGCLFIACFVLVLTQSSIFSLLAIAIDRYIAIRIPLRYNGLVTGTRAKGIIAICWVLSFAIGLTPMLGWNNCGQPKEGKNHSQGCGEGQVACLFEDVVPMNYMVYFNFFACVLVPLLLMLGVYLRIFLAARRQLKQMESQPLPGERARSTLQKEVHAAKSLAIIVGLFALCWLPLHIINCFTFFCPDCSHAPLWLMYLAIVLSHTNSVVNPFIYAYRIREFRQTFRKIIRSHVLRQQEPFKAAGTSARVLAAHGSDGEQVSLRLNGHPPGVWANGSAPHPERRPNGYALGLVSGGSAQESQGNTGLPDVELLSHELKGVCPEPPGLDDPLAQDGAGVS
Assay: Agonist activity, CHO cells transfected with human adenosine receptor and CRE-SPAP reporter; basal cAMP (A2a)
Format: cell-based
Settings: ratio to NECA; * data are minimum values since preparation was found, after testing, to contain an inactive impurity
Protocol: (1) Agonist activity against adenosine 2a, adenosine 1 and adenosine 3 receptor subtypes. Agonist selectivity of compounds against other human adenosine receptors is determined using Chinese hamster ovary (CHO) cells transfected with the gene for the relevant human adenosine receptor following a method based on that of Castanon and Spevak, 1994. […] EC50 values for compounds may then be determined as a ratio to that of the non-selective agonist N-ethyl carboxamide adenosine (NECA).
Lab note: compare A2a, EC50 as a ratio of that of NECA with 5, writing Met if less and Not met if equal or more.

{"molecule": "CCC(CC)Nc1nc(NC(CO)C(C)C)nc2c1ncn2C1OC(c2nc(C)no2)C(O)C1O (stereo not shown)", "measurement-target": "adenosine 2a receptor (Homo sapiens, UniProt P29274)", "group": "Not met"}
{"molecule": "CCC(CC)Nc1nc(NC2CCNC2)nc2c1ncn2C1OC(c2nc(C)no2)C(O)C1O (stereo not shown)", "measurement-target": "adenosine 2a receptor (Homo sapiens, UniProt P29274)", "group": "Not met"}
{"molecule": "Cc1noc(C2OC(n3cnc4c(N)nc(NC(CO)Cc5ccccc5)nc43)C(O)C2O)n1 (stereo not shown)", "measurement-target": "adenosine 2a receptor (Homo sapiens, UniProt P29274)", "group": "Met"}
{"molecule": "CCc1noc(C2OC(n3cnc4c(N)nc(NC(CO)Cc5ccccc5)nc43)C(O)C2O)n1 (stereo not shown)", "measurement-target": "adenosine 2a receptor (Homo sapiens, UniProt P29274)", "group": "Met"}
{"molecule": "CCC(CC)Nc1nc(NCCN2CCOCC2)nc2c1ncn2[C@@H]1O[C@H](c2nc(C)no2)[C@@H](O)[C@H]1O.O=CO", "measurement-target": "adenosine 2a receptor (Homo sapiens, UniProt P29274)", "group": "Not met"}
{"molecule": "CCC(CC)Nc1nc(NCCN2CCCCC2)nc2c1ncn2[C@@H]1O[C@H](c2nc(C)no2)[C@@H](O)[C@H]1O.O=CO", "measurement-target": "adenosine 2a receptor (Homo sapiens, UniProt P29274)", "group": "Not met"}
{"molecule": "CCc1noc([C@H]2O[C@@H](n3cnc4c(NC(CC)CC)nc(NCCN5CCCCC5)nc43)[C@H](O)[C@@H]2O)n1.O=CO", "measurement-target": "adenosine 2a receptor (Homo sapiens, UniProt P29274)", "group": "Not met"}

###

target: adenosine 2a receptor (Homo sapiens); construct: expressed in transfected cells; host or cells: CHO cells; assay: Agonist activity, CHO cells transfected with human adenosine receptor and CRE-SPAP reporter; basal cAMP (A2a); format: cell-based; conditions: ratio to NECA; CHO cells, SPAP readout

{"compound": "CCc1noc([C@H]2O[C@@H](n3cnc4c(NC(CC)CC)nc(N[C@H]5CCC[C@@H]5O)nc43)[C@H](O)[C@@H]2O)n1.O=CO", "A2a, EC50 as a ratio of that of NECA": 19.35}
{"compound": "CCc1noc(C2OC(n3cnc4c(NCC(c5ccccc5)c5ccccc5)nc(NCCN5CCCC5)nc43)C(O)C2O)n1.O=CO.O=CO (stereo not drawn)", "A2a, EC50 as a ratio of that of NECA": 30.21}
{"compound": "CCc1noc([C@H]2O[C@@H](n3cnc4c(NCCc5ccccc5)nc(NCCc5cn(C)cn5)nc43)[C@H](O)[C@@H]2O)n1.O=CO.O=CO", "A2a, EC50 as a ratio of that of NECA": 0.90}
{"compound": "CCc1noc(C2OC(n3cnc4c(NCC(c5ccccc5)c5ccccc5)nc(NC5CCN(Cc6ccccc6)C5)nc43)C(O)C2O)n1 (stereo not drawn)", "A2a, EC50 as a ratio of that of NECA": 29.82}
{"compound": "CCC(CC)Nc1nc(NC2CCCC2)nc2c1ncn2[C@@H]1O[C@H](c2nc(C)no2)[C@@H](O)[C@H]1O.O=CO", "A2a, EC50 as a ratio of that of NECA": 22.25}
{"compound": "CCc1noc([C@H]2O[C@@H](n3cnc4c(NCC(c5ccccc5)c5ccccc5)nc(NCCc5ccc(OC)c(OC)c5)nc43)[C@H](O)[C@@H]2O)n1.O=CO", "A2a, EC50 as a ratio of that of NECA": 32.77}
